# Test system: Triple negative breast cancer cell line CAL51
# EXPERIMENT_DESCRIPTION: Cell Titer Glo proliferation assay, CAL51
# Type: cell-based
# CONDITION_PARAMETERS: Homo sapiens, CAL-51; CAL51 cell proliferation; activity level class of IC50; read-out: Act. Level
pIC50: −log10 of the molar value.
PROPERTY_NAME: pIC50

State the recorded pIC50 for this entry: CNC(=O)c1ccc(Nc2nc(OC3CCC(O)CC3)c3c(-c4ccc5nc(C)oc5c4)c[nH]c3n2)c(OC)c1 (stereo not shown)
> 7.00

====

# Tested on: Triple negative breast cancer cell line CAL51
# EXPERIMENT_DESCRIPTION: Cell Titer Glo proliferation assay, CAL51
# Assay type: cell-based
# CONDITION_PARAMETERS: Homo sapiens, CAL-51; CAL51 cell proliferation, Cell Titer Glo; read-out: Act. Level
PROPERTY_NAME: IC50

COc1cc(C(=O)NC2COC2)ccc1Nc1nc(O[C@H]2CCOC2)c2c(-c3ccc4nc(C)oc4c3)c[nH]c2n1    < 100 nM

Record `Cc1nc2ccc(-c3c[nH]c4nc(Nc5cnn(CC(C)(C)O)c5Cl)nc(OC5CCCC5)c34)cc2o1` : what is its IC50 with Triple negative breast cancer cell line CAL51?
< 100 nM

Give Triple negative breast cancer cell line CAL51 IC50 for `CNC(=O)c1ccc(-c2c[nH]c3nc(Nc4ccc(C(=O)NC5CN(C)C5)cc4OC)nc(O[C@H]4CCOC4)c23)cc1`
400 to 1000 nM

// fetch Triple negative breast cancer cell line CAL51 IC50 for `CNC(=O)c1ccc(Nc2nc(OC3CCCC3)c3c(-c4ccc(OC)cc4OC)c[nH]c3n2)c(OC)c1`
1000 to 10000 nM

Reference for the values: patent US9795607B2
